Task for the reader: assign each of the following compounds its reported pIC50.
Target: protein-protein interaction between Kras and SOS1 (biotin-tagged human Kras loaded with GDP, His-tagged human SOS1) (Homo sapiens (Human), UniProt P01116, G12D)
Assay: Protein-protein interaction inhibition between Kras and SOS1 (KrasG12D-SOS PPI) using AlphaScreen;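 also: kras produced in E. coli, Ni-coupled donor beads and streptavidin acceptor beads, excitation 680 nm with emission detected at 520–620 nm via singlet oxygen transfer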
Assay type: biochemical
Settings: AlphaScreen; biotin-tagged human Kras loaded with GDP, His-tagged human SOS1; read-out: KRAS G12D-SOS PPI IC50
Numbered stars: 1 amine (or outer) side, 2 acyl side, 3 side chain; on linkers, the order of the positions; unused ones are H or OH. Bridge positions count the residues as written; N and C are the ends. Square brackets hold non-standard residues; d marks the D form. Peptide text beside a SMILES is read from it. hPhe(3,5-F2-4-CF3) = N[C@@H](CCc1cc(F)c(C(F)(F)F)c(F)c1)C(=O)O; hPhe(3-Cl-4-CF3) = N[C@@H](CCc1ccc(C(F)(F)F)c(Cl)c1)C(=O)O; NMePhe(4-Me) = CN[C@@H](Cc1ccc(C)cc1)C(=O)O; NMedβ3hAla = C[C@H](CC(=O)[*:2])N(C)[*:1]; X42 = CC(C)C[C@H](CC(=O)[*:2])N(C)[*:1]; NMeGly(cPent) = CN[C@H](C(=O)O)C1CCCC1; NMeCha = CN[C@@H](CC1CCCCC1)C(=O)O; NMeI = CC[C@H](C)[C@H](NC)C(=O)O; NMeD = CN[C@@H](CC(=O)O)C(=O)O; NMeL = CN[C@@H](CC(C)C)C(=O)O; NMeA = CN[C@@H](C)C(=O)O; NMeAib = CNC(C)(C)C(=O)O; Ac5c = NC1(C(=O)O)CCCC1; Aze = O=C(O)[C@@H]1CCN1; Sar = CNCC(=O)O
One number for each entry, as −log10 of the molar value.

// known answers, use as guide
CC[C@H](C)[C@@H]1NC(=O)[C@H](CC(C)C)N(C)C(=O)C[C@@H](C)N(C)C(=O)[C@H](CC(C)C)NC(=O)C(C)(C)N(C)C(=O)[C@H](CC(C)C)NC(=O)[C@H](CCc2ccc(C(F)(F)F)c(Cl)c2)NC(=O)CN(C)C(=O)[C@H](CC2CCCCC2)N(C)C(=O)CN(C)C(=O)CN(C)C1=O [Compound 1076] (cyclo(I[Sar][Sar][NMeCha][Sar][hPhe(3-Cl-4-CF3)]L[NMeAib]L[NMedβ3hAla][NMeL])) = 7.72
CC[C@H](C)[C@@H]1NC(=O)[C@H](CC(C)C)N(C)C(=O)C[C@@H](C(=O)N(C)C)N(C)C(=O)[C@H](C2CCCC2)N(C)C(=O)C2(CCCC2)NC(=O)[C@@H]2CCCN2C(=O)[C@H](CCc2cc(F)c(C(F)(F)F)c(F)c2)NC(=O)CN(C)C(=O)[C@H](Cc2ccc(C)cc2)N(C)C(=O)[C@@H]2CCN2C(=O)[C@H](C)N(C)C1=O [Compound 965] ([NMeL]I[NMeA][Aze][NMePhe(4-Me)][Sar][hPhe(3,5-F2-4-CF3)]P[Ac5c][NMeGly(cPent)][NMeD]-NMe2; lactam N-11) = 9.07

// next entry
The compound CC[C@H](C)[C@@H]1NC(=O)[C@H](CC(C)C)N(C)C(=O)C[C@@H](CC(C)C)N(C)C(=O)[C@H]([C@@H](C)CC)N(C)C(=O)C2(CCCC2)NC(=O)[C@@H]2CCCN2C(=O)[C@H](CCc2ccc(C(F)(F)F)c(Cl)c2)NC(=O)CN(C)C(=O)[C@H](Cc2ccc(C)cc2)N(C)C(=O)[C@@H]2CCN2C(=O)[C@H](C)N(C)C1=O [Compound 1974] (cyclo([Ac5c][NMeI][X42][NMeL]I[NMeA][Aze][NMePhe(4-Me)][Sar][hPhe(3-Cl-4-CF3)]P)) showed pIC50 equal to 7.35

Just for reference, patent US20240148821A1 is where these values come from.
